Test: cells
Type: functional
The source made the active and inactive calls. The rule behind the calls is not given here.
observable: IC50

Below: 4 compounds and their reported IC50.
stdin: Which IC50 is reported for this compound? COC(=O)COc1ccc(-c2ccccc2)cc1C=O
stdout: 12.1 µM (active)

stdin: Follow-up entry: c1nc2n(n1)C1=C(CCCC1)C1(CCCCC1)N2
stdout: 10.1 µM (active)

stdin: Follow-up entry: O=C(OCn1nnc2ccccc2c1=O)c1ccc(Br)o1
stdout: 18.6 µM (active)

stdin: Follow-up entry: COC(=O)N/N=C/c1ccc([N+](=O)[O-])s1
stdout: 30.5 µM (active)

Lab note: next compound to report on.
stdin: Which IC50 is reported for this compound? O=C(Nc1nnc(-c2ccco2)o1)c1ccc([N+](=O)[O-])s1
stdout: 9.81 µM (active)

Every entry's value here was drawn from ChEMBL document CHEMBL1201862.
